- Test system: HepG2 (L1.3 5'UTR promoter firefly luciferase reporter)
- assay.method.text: L1 promoter activity (FLuc/RLuc) relative to DMSO vehicle control (% of control); higher = stronger L1 promoter activation
- particulars: concentration (uM unless unit written): 500; treatment time: 6 h
Where a name gives a salt, the structure may show the parent alone.
experimental.endpoint: L1 promoter activity
Response field accepts a number only; no unit should be typed.

[Q] What is its L1 promoter activity for HepG2 (L1.3 5'UTR promoter firefly luciferase reporter)? Entry: Nc1nc2c(ncn2COC(CO)CO)c(=O)[nH]1
[A] 109

[Q] What is its L1 promoter activity for HepG2 (L1.3 5'UTR promoter firefly luciferase reporter)? Entry: CN(C)CCC(c1ccc(Cl)cc1)c1ccccn1 (racemic) [(±)-Chlorpheniramine maleate salt]
[A] 84

[Q] What is its L1 promoter activity for HepG2 (L1.3 5'UTR promoter firefly luciferase reporter)? Entry: COS(C)(=O)=O [Methyl methanesulfonate]
[A] 100

[Q] What is its L1 promoter activity for HepG2 (L1.3 5'UTR promoter firefly luciferase reporter)? Entry: Cc1cccc(Nc2ccccc2C(=O)O)c1C
[A] 113

[Q] What is its L1 promoter activity for HepG2 (L1.3 5'UTR promoter firefly luciferase reporter)? Entry: O=C(O)CC[N+](=O)[O-]
[A] 119

[Q] What is its L1 promoter activity for HepG2 (L1.3 5'UTR promoter firefly luciferase reporter)? Entry: COc1ccc2c(c1OC)C(=O)OC2C1c2c(cc3c(c2OC)OCO3)CCN1C [(S,R)-Noscapine]
[A] 68.2

[Q] What is its L1 promoter activity for HepG2 (L1.3 5'UTR promoter firefly luciferase reporter)? Entry: ClC(Cl)(Cl)Cl [Carbon tetrachloride]
[A] 99.7

[Q] What is its L1 promoter activity for HepG2 (L1.3 5'UTR promoter firefly luciferase reporter)? Entry: CS(=O)(=O)OCCCCOS(C)(=O)=O
[A] 131

[Q] What is its L1 promoter activity for HepG2 (L1.3 5'UTR promoter firefly luciferase reporter)? Entry: NS(=O)(=O)c1cc(C(=O)O)c(NCc2ccco2)cc1Cl [Furosemide]
[A] 96.9

[Q] What is its L1 promoter activity for HepG2 (L1.3 5'UTR promoter firefly luciferase reporter)? Entry: CCOC(=O)[C@@]1(CCCCCCOc2ccc(Cl)cc2)CO1
[A] 181

[Q] What is its L1 promoter activity for HepG2 (L1.3 5'UTR promoter firefly luciferase reporter)? Entry: CCC1(c2ccc(N)cc2)CCC(=O)NC1=O (stereo not drawn) [Aminoglutethimide]
[A] 136

[Q] What is its L1 promoter activity for HepG2 (L1.3 5'UTR promoter firefly luciferase reporter)? Entry: Cc1cc(CC(=O)O)n(C)c1C(=O)c1ccc(Cl)cc1 [Zomepirac]
[A] 102

[Q] What is its L1 promoter activity for HepG2 (L1.3 5'UTR promoter firefly luciferase reporter)? Entry: CN(C)CCN(Cc1cccs1)c1ccccn1
[A] 86.6

[Q] What is its L1 promoter activity for HepG2 (L1.3 5'UTR promoter firefly luciferase reporter)? Entry: CC(C)Cc1ccc(C(C)C(=O)O)cc1 (stereo not drawn)
[A] 99.7

[Q] What is its L1 promoter activity for HepG2 (L1.3 5'UTR promoter firefly luciferase reporter)? Entry: NC1=NCC2c3ccccc3Cc3ccccc3N12 (stereo not drawn) [Epinastine hydrochloride]
[A] 27.1

[Q] What is its L1 promoter activity for HepG2 (L1.3 5'UTR promoter firefly luciferase reporter)? Entry: CN1CC=C(c2ccccc2)CC1 [1-Methyl-4-phenyl-1,2,3,6-tetrahydropyridine]
[A] 115

[Q] What is its L1 promoter activity for HepG2 (L1.3 5'UTR promoter firefly luciferase reporter)? Entry: COc1ccc2c(c1)c(CC(=O)O)c(C)n2C(=O)c1ccc(Cl)cc1
[A] 92.6

[Q] What is its L1 promoter activity for HepG2 (L1.3 5'UTR promoter firefly luciferase reporter)? Entry: CC(C)=CC(=O)C=C(C)C
[A] 131

[Q] What is its L1 promoter activity for HepG2 (L1.3 5'UTR promoter firefly luciferase reporter)? Entry: Nc1ccn([C@@H]2O[C@H](CO)[C@@H](O)[C@@H]2O)c(=O)n1 [Cytosine arabinoside]
[A] 102

[Q] What is its L1 promoter activity for HepG2 (L1.3 5'UTR promoter firefly luciferase reporter)? Entry: CC(C)(C(=O)c1cccnc1)c1cccnc1
[A] 127

[Q] What is its L1 promoter activity for HepG2 (L1.3 5'UTR promoter firefly luciferase reporter)? Entry: NS(=O)(=O)c1cc2c(cc1Cl)NC(C(Cl)Cl)NS2(=O)=O (stereo not drawn) [Trichlormethiazide]
[A] 102

[Q] What is its L1 promoter activity for HepG2 (L1.3 5'UTR promoter firefly luciferase reporter)? Entry: CC(=O)CC(c1ccccc1)c1c(O)c2ccccc2oc1=O (stereo not drawn)
[A] 90.8

[Q] What is its L1 promoter activity for HepG2 (L1.3 5'UTR promoter firefly luciferase reporter)? Entry: CC(=O)Oc1ccccc1C(=O)O
[A] 114

====

- Test system: HepG2 (L1.3 5'UTR promoter firefly luciferase reporter)
- assay.method.text: L1 promoter activity (FLuc/RLuc) relative to DMSO vehicle control (% of control); higher = stronger L1 promoter activation
- particulars: concentration (uM unless unit written): 0.5; treatment time: 24 h
experimental.endpoint: L1 promoter activity
Response field accepts a number only; no unit should be typed.

[Q] For the compound CCOC(=O)C1=C(COCCN)NC(C)=C(C(=O)OC)C1c1ccccc1Cl (centres undefined) [Amlodipine besylate] , what L1 promoter activity is on record?
[A] 105

[Q] For the compound C=C1[C@@H](C)[C@H]2[C@H](Cc3ccccc3)NC(=O)[C@]23[C@H](OC(C)=O)/C=C/[C@@](C)(O)C(=O)[C@@H](C)C/C=C/[C@H]3[C@@H]1O [Cytochalasin D] , what L1 promoter activity is on record?
[A] 128

[Q] For the compound c1ccc2c(c1)cc1ccc3cccc4ccc2c1c34 [Benzo(a)pyrene] , what L1 promoter activity is on record?
[A] 132

[Q] For the compound COc1cccc2c1C(=O)c1c(O)c3c(c(O)c1C2=O)C[C@@](O)(C(=O)CO)C[C@@H]3O[C@H]1C[C@H](N)[C@H](O)[C@H](C)O1 [Doxorubicin] , what L1 promoter activity is on record?
[A] 40.2

====

- Tested on: HepG2 (L1.3 5'UTR promoter firefly luciferase reporter)
- assay.method.text: L1 promoter activity (FLuc/RLuc) relative to DMSO vehicle control (% of control); higher = stronger L1 promoter activation
- particulars: concentration (uM unless unit written): 50; treatment time: 24 h
experimental.endpoint: L1 promoter activity
Response field accepts a number only; no unit should be typed.

[Q] For the compound N.N.[Cl][Pt][Cl] [Cisplatin] , what L1 promoter activity is on record?
[A] 105

[Q] For the compound O=C1NC(=S)NC(=O)C1C(=O)Nc1ccccc1 [Merbarone] , what L1 promoter activity is on record?
[A] 219

[Q] For the compound Cc1cccc(Nc2ccccc2C(=O)O)c1C [Mefenamic acid] , what L1 promoter activity is on record?
[A] 91

[Q] For the compound CC(C)OC(=O)C(C)(C)Oc1ccc(C(=O)c2ccc(Cl)cc2)cc1 [Fenofibrate] , what L1 promoter activity is on record?
[A] 127

[Q] For the compound COC(=O)C1=C(C)NC(C)=C(C(=O)OC)C1c1ccccc1[N+](=O)[O-] [Nifedipine] , what L1 promoter activity is on record?
[A] 104

====

Would you mind telling me the reported L1 promoter activity of each entry?
- Test system: HepG2 (L1.3 5'UTR promoter firefly luciferase reporter)
- assay.method.text: L1 promoter activity (FLuc/RLuc) relative to DMSO vehicle control (% of control); higher = stronger L1 promoter activation
- particulars: concentration (uM unless unit written): 20; treatment time: 24 h
Response field accepts a number only; no unit should be typed.

[Q] For the compound CC(C)n1c(/C=C/C(O)CC(O)CC(=O)O)c(-c2ccc(F)cc2)c2ccccc21 (stereo not given) [Fluvastatin] , what L1 promoter activity is on record?
[A] 109

[Q] For the compound O=c1[nH]cc(F)c(=O)[nH]1 [Fluorouracil] , what L1 promoter activity is on record?
[A] 73.4

[Q] For the compound CC(=O)N1CCN(c2ccc(OCC3COC(Cn4ccnc4)(c4ccc(Cl)cc4Cl)O3)cc2)CC1 (stereo not given) [Ketoconazol] , what L1 promoter activity is on record?
[A] 57.5

[Q] For the compound C[C@H](CCC(=O)O)C[C@H](C)C[C@H](C)C(=O)/C=C(\O)[C@H](C)C[C@H](C)C/C=C/[C@@H](C)[C@@H](O)[C@@H](C)[C@@H](O)C[C@@H]1CC[C@@](C)([C@H]2CC[C@@](C)([C@@H](C)O)O2)O1 [Ionomycin] , what L1 promoter activity is on record?
[A] 36.9

[Q] For the compound CC(=O)O[C@H]1C(=O)[C@@]2(C)[C@H]([C@H](OC(=O)c3ccccc3)[C@]3(O)C[C@H](OC(=O)[C@H](O)[C@@H](NC(=O)c4ccccc4)c4ccccc4)C(C)=C1C3(C)C)[C@]1(OC(C)=O)CO[C@@H]1C[C@@H]2O [Taxol] , what L1 promoter activity is on record?
[A] 76.3
